Origin of measurements: patent US20210292393A1

# system-name: SARS-CoV-2 full length spike protein, V367F mutant (SARS-CoV-2, UniProt P0DTC2 14-1273)
property-label: median fluorescence fold over isotype control (fold over isotype)
Value expressed in fold over isotype; do not type the unit.

Sample antibody 430 (antibody, V domains shown) VH: QVHLVEAGGGVVQPGKSLRLSCAASGFIFSNFGMHWVRQSPGKGLEWVAVVSYDASVTKYSDSFEGRFTISRDNSKNTLYLQMDSLRPEDSAVYYCAKGQGANLLHDWGQGILVTVSS VL: DVVLTQSPLSLPVTLGQPASISCRSSESLVYTDGDTYLHWFHQRPGQSPRRLIYKVSNRDSGVPDRFSGSGSGTDFTLRISRVEAEDVGVYYCMQGTHWPFTFGPGTKVDIK ; median fluorescence fold over isotype control observed: 38.3

Continuing:
Sample antibody 433 (antibody, V domains shown) VH: QVQLVESGGGVVQPGRSLRLSCAASGFTFSSYAMHWVRQAPGKGLEWVAVISYDGSNKYYADSVKGRFTISRDNSKNTLYLQMNSLRAEDTAVYYCAKDYEVVIAIGGPGAFDYWGQGTLVTVSS VL: SYVLTQPPSVSVAPGKTARITCGGNNIGSKSVHWYQQKPGQAPVLVIYYDSDRPSGIPERFSGSNSGNTATLTISRVEAGDEADYYCQVWDSSSDHVVFGGGTKLTVL ; median fluorescence fold over isotype control observed: 12.3

Sample antibody 453 (antibody, V domains shown) VH: QVQLVESGGGVVQPGRSLRLSCAASGFTFSSYAMYWVRQAPGKGLEWVAVISYDGSNKYYADSVKGRFTISRDNSKNTLYLQMNSLRAEDTAVYYCARDRPHYYGSGRKILNLYGMDVWGQGTTVTVSS VL: DIQLTQSPSFLSASVGDRVTITCRASQGISSYLAWYQQKPGKAPKLLIYAASTLQSGVPSSFSGSGSGTEFTLTISSLQPEDFATYYCQQLNSYPPFTFGPGTKVDIK ; median fluorescence fold over isotype control observed: 39.4
